Tested target: T1, Recombinant Human DLL4 (human, UniProt Q9NR61 27-524)
T1 construct: Bought recombinant human DLL4 (R&D Systems 1506-D4/CF); also called delta-like protein 4; rHuman DLL4
Test protocol: ELISA on plate-coated DLL4, Fab at 0.74 nM (3-fold serial dilution)
Tick class 1 if ELISA signal is 0.3 or greater. Tick class 0 if ELISA signal is less than 0.3.

Has Fab VH1-46_IGHD6-6*01_IGHJ1*01 S102A/S103P/S104F/H111F I51V/N52L/S54T/G56H & L6_IGKJ1*01 S28N/S30D/S31H S52L/A55G (Fab, V domains shown, Fab expressed in E. coli: VH joined to CH1 from Plasmid A (His6 and Flag tags), VL joined to kappa CL from Plasmid C; also called H:APFF VLTH & L:NDH LG) VH: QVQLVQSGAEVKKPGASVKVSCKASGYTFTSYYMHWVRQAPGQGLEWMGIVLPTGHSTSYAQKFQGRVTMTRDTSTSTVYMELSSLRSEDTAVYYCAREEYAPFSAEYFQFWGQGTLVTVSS VL: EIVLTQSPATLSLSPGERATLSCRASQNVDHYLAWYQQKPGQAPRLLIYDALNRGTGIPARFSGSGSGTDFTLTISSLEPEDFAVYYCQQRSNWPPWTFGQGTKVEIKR a recorded ELISA signal greater than or equal to 0.3?
class 1

Has Fab VH1-46_IGHD6-6*01_IGHJ1*01 S102A/S103P/S104F/H111F N52L/S54T/G56H & L6_IGKJ1*01 S28N/S30D/S31H (Fab, V domains shown, Fab expressed in E. coli: VH joined to CH1 from Plasmid A (His6 and Flag tags), VL joined to kappa CL from Plasmid C; also called H:APFF LTH & L:NDH) VH: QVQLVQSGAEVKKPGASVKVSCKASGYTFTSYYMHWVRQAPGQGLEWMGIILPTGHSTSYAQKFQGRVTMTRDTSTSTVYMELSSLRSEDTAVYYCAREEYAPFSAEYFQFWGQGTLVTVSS VL: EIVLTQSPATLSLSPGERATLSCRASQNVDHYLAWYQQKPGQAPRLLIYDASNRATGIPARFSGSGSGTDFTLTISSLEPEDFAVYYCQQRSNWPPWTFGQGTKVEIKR a recorded ELISA signal greater than or equal to 0.3?
class 0

Has Fab VH1-46_IGHD6-6*01_IGHJ1*01 S102A/S103P/S104F/H111F I51A/N52L/S54T/G56H & L6_IGKJ1*01 S28N/S30D/S31H S52L/A55S (Fab, V domains shown, Fab expressed in E. coli: VH joined to CH1 from Plasmid A (His6 and Flag tags), VL joined to kappa CL from Plasmid C; also called H:APFF ALTH & L:NDH LS) VH: QVQLVQSGAEVKKPGASVKVSCKASGYTFTSYYMHWVRQAPGQGLEWMGIALPTGHSTSYAQKFQGRVTMTRDTSTSTVYMELSSLRSEDTAVYYCAREEYAPFSAEYFQFWGQGTLVTVSS VL: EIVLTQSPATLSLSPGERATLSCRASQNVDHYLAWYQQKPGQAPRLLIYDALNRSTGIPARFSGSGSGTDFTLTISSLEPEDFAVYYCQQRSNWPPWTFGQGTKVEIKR a recorded ELISA signal greater than or equal to 0.3?
class 0

Has Fab VH1-46_IGHD6-6*01_IGHJ1*01 S102A/S103P/S104F/H111F I51V/N52L/S54T/G56H & L6_IGKJ1*01 S28N/S30D/S31H (Fab, V domains shown, Fab expressed in E. coli: VH joined to CH1 from Plasmid A (His6 and Flag tags), VL joined to kappa CL from Plasmid C; also called H:APFF VLTH & L:NDH) VH: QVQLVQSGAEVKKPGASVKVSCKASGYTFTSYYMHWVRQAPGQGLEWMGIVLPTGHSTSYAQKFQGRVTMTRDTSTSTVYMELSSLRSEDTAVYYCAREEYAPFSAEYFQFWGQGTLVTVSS VL: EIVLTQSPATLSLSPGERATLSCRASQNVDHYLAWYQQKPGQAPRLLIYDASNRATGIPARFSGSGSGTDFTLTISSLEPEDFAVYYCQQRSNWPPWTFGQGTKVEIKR a recorded ELISA signal greater than or equal to 0.3?
class 0

Has Fab VH1-46_IGHD6-6*01_IGHJ1*01 S102A/S103P/S104F/H111F I51A/N52L/S54T/G56H & L6_IGKJ1*01 S28N/S30D/S31H S52L/A55G (Fab, V domains shown, Fab expressed in E. coli: VH joined to CH1 from Plasmid A (His6 and Flag tags), VL joined to kappa CL from Plasmid C; also called H:APFF ALTH & L:NDH LG) VH: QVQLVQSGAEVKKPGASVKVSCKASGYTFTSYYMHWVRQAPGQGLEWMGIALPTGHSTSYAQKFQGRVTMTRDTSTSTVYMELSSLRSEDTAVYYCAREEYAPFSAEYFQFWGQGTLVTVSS VL: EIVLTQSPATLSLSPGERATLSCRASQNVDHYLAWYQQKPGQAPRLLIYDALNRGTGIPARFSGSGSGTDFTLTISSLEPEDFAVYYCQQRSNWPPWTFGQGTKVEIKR a recorded ELISA signal greater than or equal to 0.3?
class 0

Has Fab VH1-46_IGHD6-6*01_IGHJ1*01 S102A/S103P/S104F/H111F N52L/S54T/G56H & L6_IGKJ1*01 S28N/S30D/S31H S52L/A55G (Fab, V domains shown, Fab expressed in E. coli: VH joined to CH1 from Plasmid A (His6 and Flag tags), VL joined to kappa CL from Plasmid C; also called H:APFF LTH & L:NDH LG) VH: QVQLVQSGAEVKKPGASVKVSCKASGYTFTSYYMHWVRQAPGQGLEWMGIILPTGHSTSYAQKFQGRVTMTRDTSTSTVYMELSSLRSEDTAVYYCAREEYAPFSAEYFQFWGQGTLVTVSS VL: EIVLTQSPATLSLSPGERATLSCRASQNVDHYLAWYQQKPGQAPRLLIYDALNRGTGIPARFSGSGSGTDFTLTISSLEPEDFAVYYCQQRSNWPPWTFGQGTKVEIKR a recorded ELISA signal greater than or equal to 0.3?
class 1

Has Fab VH1-46_IGHD6-6*01_IGHJ1*01 S102A/S103P/S104F/H111F I51A/N52L/S54T/G56H & L6_IGKJ1*01 S28N/S30D/S31H (Fab, V domains shown, Fab expressed in E. coli: VH joined to CH1 from Plasmid A (His6 and Flag tags), VL joined to kappa CL from Plasmid C; also called H:APFF ALTH & L:NDH) VH: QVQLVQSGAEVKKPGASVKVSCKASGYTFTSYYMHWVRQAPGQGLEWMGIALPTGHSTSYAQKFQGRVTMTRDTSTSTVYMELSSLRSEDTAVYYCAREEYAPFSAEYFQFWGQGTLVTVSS VL: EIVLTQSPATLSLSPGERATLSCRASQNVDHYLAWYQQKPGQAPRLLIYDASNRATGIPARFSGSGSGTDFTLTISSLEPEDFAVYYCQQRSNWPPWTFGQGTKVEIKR a recorded ELISA signal greater than or equal to 0.3?
class 0
